Target: human Claudin 18.2 (hCLDN18.2) (human, UniProt P56856-2 1-261)
Assay: cell-based or functional assay
Measured CDC EC50 of individual entries
The answer is to be given in µg/mL; state only the numeric part.

Observe how each entry below is paired with its result.
ch-43F5 (antibody, V domains shown, also called chimeric antibody of clone 43F5) VH: QVQLQQPGAELVKPGTSVKLSCKASGYTFTSYWTHWVKQRPGQGLEWIGMIHPNSGSSNYNEKFKSKATLTVDKSSSTAYMQLRRLTSEDSAVYYCTRIHYGNAMDYWGQGTSVTVSS VL: DIVMTQSPSSLTVTAGEKVTMTCKSSQSLLNSGNQKNYLTWYQQKPGQPPKLLIYWASTRESGVPDRFTGSGSGTDFTLTISSVQAEDLAIYYCQNDYSFPFTFGSGTKLEIK :: 0.206
ch-39C8 (antibody, V domains shown, also called chimeric antibody of clone 39C8) VH: QVQLQQSGAGLVKPGASVKISCKASGYAFSSYWMIWVKQRPGKGLEWIGQIYPGDGDTNYNGKFKGKATLTADKSSSTAFMQLSSLTSEDSAVYFCTRIYYGNAFAYWGQGTLVTVSA VL: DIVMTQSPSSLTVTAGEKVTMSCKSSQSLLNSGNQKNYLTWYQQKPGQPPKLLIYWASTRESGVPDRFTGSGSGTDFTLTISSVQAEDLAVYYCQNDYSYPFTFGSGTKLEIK :: 0.177

Q: Quick one: give measured CDC EC50 for ch-253C4 (antibody, V domains shown, also called chimeric antibody of clone 253C4) VH: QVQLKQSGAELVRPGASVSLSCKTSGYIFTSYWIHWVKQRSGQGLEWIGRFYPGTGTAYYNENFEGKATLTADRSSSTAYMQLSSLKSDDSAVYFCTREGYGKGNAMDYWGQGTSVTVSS VL: DIVMTQSPSSLTVTTGEKVTLSCKSSQSLLNSGNQKNYLTWYQQKSGQPPELLIYWASTRESGVPDRFTGSGSGTDFTLTVSSVQAEDLAVYYCQNDYYFPFTFGGGTKLEIK
Ans: 0.038
